property measured: log10(intrinsic clearance, human liver microsomes) (log10 of the value in mL/min/kg)
A difference of one corresponds to tenfold intrinsic clearance, human liver microsomes; all values are log10 with intrinsic clearance, human liver microsomes in mL/min/kg.

Solved entries:
Lookup result for `COc1ccccc1-c1nnc([C@H]2CCN(Cc3ccccc3C)C2)o1` ; measured log10(intrinsic clearance, human liver microsomes): 2.20

get_value(item= `N#Cc1ccc(OCCn2cccn2)cc1` , readout=log10(intrinsic clearance, human liver microsomes)) returns 0.84

// log10(intrinsic clearance, human liver microsomes) lookup, compound = `O=C(NCc1cccc2c1OCCCO2)c1cscn1` , result: 0.88

The reported log10(intrinsic clearance, human liver microsomes) of the compound `O=C1CC2(CCN(C(=O)NCc3ccccc3)CC2)Oc2ccccc21` was 1.34

Per the record, `N#Cc1nc(-c2ccccc2)oc1NCc1ccc2c(c1)OCO2` has log10(intrinsic clearance, human liver microsomes) of 2.32

---
So for `CCc1sc(N)nc1-c1ccc(OC)cc1` , the logged log10(intrinsic clearance, human liver microsomes) turned out to be 2.27

Notebook: `COc1ccc(Nc2ncnc3sccc23)c(OC)c1` , log10(intrinsic clearance, human liver microsomes) read as 1.95

###

property measured: intrinsic clearance, human liver microsomes

In plain terms, `CC(C)c1nnc(CN2CCN(c3nccs3)CC2)o1` has a documented intrinsic clearance, human liver microsomes of ≤ 4.74 mL/min/kg

Quick note, intrinsic clearance, human liver microsomes for `O=C(Cn1c(=O)c2cccn2c2ccccc21)NCCCN1CCCC1` landed at ≤ 4.74 mL/min/kg

Proceed to the following item.
Record `Cn1ncnc1NCc1cc(F)cc(F)c1` . Reported intrinsic clearance, human liver microsomes: ≤ 4.74 mL/min/kg

###

// values below are reported intrinsic clearance, human liver microsomes

Entry `Cc1ccc(Oc2ccc(N)cc2)nn1` — recorded intrinsic clearance, human liver microsomes = ≤ 4.74 mL/min/kg

Further cases:
The molecule `CC(C)N1CC[C@H](c2nnc(-c3cncn3C)o2)C1` showed intrinsic clearance, human liver microsomes equal to ≤ 4.74 mL/min/kg

`Cc1cc(C(=O)N(C)C2CCC2)n2nccc2n1` yielded intrinsic clearance, human liver microsomes of ≤ 4.74 mL/min/kg

###

property measured: intrinsic clearance, rat liver microsomes

Some entries whose results are on file:
// `CCNC(=O)N1CCc2nc3ccc(F)cn3c(=O)c2C1` : intrinsic clearance, rat liver microsomes value = ≤ 10.7 mL/min/kg

Measured intrinsic clearance, rat liver microsomes, `CN(C)c1ccncc1CN1CCN(c2ccc(C(N)=O)cc2)CC1` : ≤ 10.7 mL/min/kg

Further cases:
// intrinsic clearance, rat liver microsomes value for `CCCCN1CCc2nc3cc(C4CC4)nn3c(O)c2C1` : ≤ 10.7 mL/min/kg

###

property measured: MDR1-MDCK efflux ratio
Respond with the number and no other words.

Use these answered entries as a reference point.
In plain terms, `Fc1cccc(Cl)c1CNCCc1c[nH]c2ccccc12` has a documented MDR1-MDCK efflux ratio of 0.457

Record `COCCN(C)C(=O)c1ccc(-c2cccc(-c3noc(C)n3)c2)cc1` , field MDR1-MDCK efflux ratio: 0.878

# ---- query compound ----
Notebook: `Cn1c(=O)n(C2CCCC2)c(=O)c2c(F)cccc21` , MDR1-MDCK efflux ratio read as 0.69

###

test settings: pH 6.8
Collected log10 of aqueous solubility values appear next to each entry.
Response schema: value (number) is log10 of aqueous solubility in units of µg/mL.

response.value for `Cc1ncc(CN(C)c2nnc(C)c(C)c2C#N)s1` (field: log10 of aqueous solubility) = 1.46

Entry `CN(C)C1CN(c2nc(-c3cnccn3)nc3sc4c(c23)CCCC4)C1` , log10 of aqueous solubility reported as 1.57

Entry `CC(C)COc1cc(F)cc(-c2cncc(C(=O)N3CCCC3)n2)c1` — recorded log10 of aqueous solubility = -0.15

The measured log10 of aqueous solubility associated with `CS(=O)(=O)N1CCc2c(cccc2NC(=O)c2ccc(F)cc2)C1` reads -0.43

Noted for `COC(=O)CC1=NN(c2ccc(OC)cc2)C(=O)/C1=C(/C)NCc1ccc(OC)cc1` : its log10 of aqueous solubility reads 0.36

Next:
// log10 of aqueous solubility value for `Cc1ccc(-c2ccc(NC(=O)c3ncoc3-c3ccccc3)cc2)o1` : -0.43

Note to self: log10 of aqueous solubility recorded for `CN1CCN(c2ccc(NC(=O)c3ccc(S(=O)(=O)N4CCCc5ccccc54)cc3)cc2)CC1` was 1.00

Record `Cc1nccc(-c2cccc(-n3ccnc3C(C)C)c2)n1` , field log10 of aqueous solubility: 1.61

`CS(=O)(=O)N1CCc2cc(C(=O)NCCOc3ccc4ccccc4c3)ccc21` has a reported log10 of aqueous solubility of -0.36

###

test settings: pH 6.8
Returns one of Fulfilled or Not fulfilled; Fulfilled when aqueous solubility is >= 40 µg/mL.

Example entries begin here.
Say whether `CCC(=O)N(C)CC(=O)Nc1cccc(F)c1` shows aqueous solubility of 40 µg/mL or more.
Fulfilled

Check if aqueous solubility >= 40 µg/mL (inclusive). Item: `CC(=O)Nc1cc(CCC2CCNCC2)ccn1`
Fulfilled

Assess whether reported aqueous solubility for `Cc1nn(CCC#N)c(C)c1Oc1ccccc1O` sits at 40 µg/mL or higher.
Not fulfilled

Record `Cc1cc(C)c(CC(=O)N2CC(CO)C2)c(C)c1` ; criterion: aqueous solubility no lower than 40 µg/mL. Met?
Fulfilled

Here is the next item to consider.
Exam item: decide whether the reported aqueous solubility for `CCn1ncc(-c2cc(C(F)F)nc(NCCCOC)n2)c1C` is at least 40 µg/mL.
Fulfilled

###

test settings: pH 6.8
property measured: aqueous solubility (µg/mL)
Field format: number, assumed µg/mL, no unit text.

In plain terms, `Cc1cc(C)c(S(=O)(=O)Nc2ccc3c(c2)OCO3)c(C)c1-n1cnnn1` has a documented aqueous solubility of 17.8

# compound `O=C(/C=C/N1C[C@H]2C[C@@H]1CN2c1ccccn1)c1ccccc1O` ; its aqueous solubility = 42

aqueous solubility measured on `Cc1ccnc(Oc2cc(N)ccc2C)c1` = 35.3

Noted for `CC1(COc2ccc3c(c2)ncn3-c2ccc3cccc(N4CCC(N)CC4)c3n2)COC1` : its aqueous solubility reads 32.8

Lookup result for `CCc1ccccc1-c1cn(CCc2cnccn2)nn1` ; measured aqueous solubility: 27.6

Lookup result for `CN(CCc1ccccn1)c1cnc2ccccc2n1` ; measured aqueous solubility: 44.5

The recorded aqueous solubility for `O=C(Nc1ccc(F)cc1)[C@H](O)c1ccccc1` is 42.9

The reported value for `Cc1cccc2cc(C(N)=S)/c(=N/Nc3ccccc3)oc12` in terms of aqueous solubility is 0.48

Next:
# aqueous solubility of `COc1ccc(C(=O)Nc2cc(-c3ccc(F)c(F)c3)no2)cc1` = 0.35

# compound `CCOC(=O)c1ccc(OCC(=O)c2c[nH]c3ccccc23)cc1` ; its aqueous solubility = 0.69

response.value for `CN(CCC#N)Cc1cc(C#N)ccc1F` (field: aqueous solubility) = 31.4

For reference, reported aqueous solubility for `O=S(=O)(c1ccccc1Cl)N1CCCc2cnc(N3CCOCC3)nc21` stands at 1

###

As shown below, each of these compounds has a reported intrinsic clearance, human liver microsomes value.
Note: unit mL/min/kg is implicit; provide only the numeric part.

The reported value for `COc1ccc(OCC(=O)Nc2cccc(Cl)c2N2CCN(C(C)=O)CC2)cc1` in terms of intrinsic clearance, human liver microsomes is 181

Entry `CC(=O)n1c(/C=C2/N=C(c3ccc(F)cc3)OC2=O)cc2ccccc21` ; intrinsic clearance, human liver microsomes = 109

// recorded intrinsic clearance, human liver microsomes for `COCc1ccccc1COC(=O)c1ccc(C)nc1` : 444

# ---- query compound ----
GET /value?item= `Cc1cc(OCc2ncc(C(C)(C)C)o2)nn1C` &field=intrinsic clearance, human liver microsomes returns 27.8

###

Okay, here is how we bin by MDR1-MDCK efflux ratio: low value (below 0.8), medium value (0.8 to below 4), high value (4 or more)

Class label required: `CC(=O)NC1CCN(Cc2cccc(-c3cccnc3)c2)CC1`
high value

***
Please report the category associated with `NC(=O)CC1CCN(c2ncccn2)CC1` , nothing else.
medium value

Input `CC(C)n1cc(CN2CCC(c3nc(N(C)C)no3)CC2)cn1` ; output its category
medium value

// return the class label for `COc1cccc(N2CCN(c3nc(C)cc(C)c3C#N)CC2)c1`
low value

Pick a category. Item: `Cc1cccc(NC(=O)c2ccc3ccccc3c2)n1`
low value

For the record `Cc1ccccc1C(=O)Nc1nc(C)c(C)s1` , report the class its MDR1-MDCK efflux ratio corresponds to.
low value

Consider `CCCn1ncc2[nH]c(C3CCCCC3)nc21` . To which MDR1-MDCK efflux ratio class does it belong?
medium value

Pick a category. Item: `CCN(C(=O)c1cc(NC(C)=O)ccc1F)C1CCCC1`
high value

Bin this entry: `COc1ccc(NC(C)=O)cc1NC(=O)CN(Cc1ccccc1)C(C)C`
medium value

Any idea which band `CNC(=O)c1ccc(N(C)C2CCC2)nn1` is in?
low value

Class for `O=C(NCCc1cn2c(n1)CCCC2)c1ccccn1` ?
high value

Hey, which category is `CNc1cc(Nc2cccn(-c3ccccn3)c2=O)nn2c(C(=O)N[C@@H]3C[C@@H]3F)cnc12` in, do you know?
high value

Assign a category based on measured MDR1-MDCK efflux ratio for `Cc1cc(C)nc(-n2nc(C)c(CC(=O)NC3CCCCCC3)c2C)n1` and give only the class name.
high value
